target: UniProtKB Q9Y5Y4; assay: DP2/CRTH2 binding assay (radioligand binding with [3H]PGD2); conditions: [3H]PGD2 binding, membranes of HEK293 cells expressing recombinant human DP2; read-out: hDP2
Kindly supply the reported IC50 values for the records listed here.

CCN(Cc1cc(F)ccc1-c1cncc(CC(=O)O)c1)C(=O)C1CC1: 300 to 1000 nM
CCN(Cc1cc(C(F)(F)F)ccc1-c1cncc(CC(=O)O)c1)C(=O)OCc1ccccc1: < 300 nM
CCN(Cc1cc(C(F)(F)F)ccc1-c1cc(CC(=O)O)cnc1OC)C(=O)NCc1ccccc1: < 300 nM

--- query ---
IC50 for CCOc1cc(OCC)nc(CC(=O)N(CC)Cc2cc(C(F)(F)F)ccc2-c2cncc(CC(=O)O)c2)n1 is < 300 nM

====

molecular target: human DP2 receptor (Homo sapiens); test: DP2/CRTH2 binding assay (radioligand binding with [3H]PGD2); conditions: [3H]PGD2 binding, membranes of HEK293 cells expressing recombinant human DP2; read-out: hDP2
Please respond with reported IC50 for every item in the list.

Some solved entries appear below for comparison.
CCN(Cc1cc(C(F)(F)F)ccc1-c1cncc(CC(=O)O)c1)C(=O)CCc1cccnc1 [Compound 36]: 300 to 1000 nM
CCN(Cc1cc(C(F)(F)F)ccc1-c1cncc(CC(=O)O)c1)C(=O)Cc1ccc(Cl)nc1 [Compound 31]: < 300 nM
CCN(Cc1cc(C(F)(F)F)ccc1-c1cc(CC(=O)O)cnc1OC)C(=O)OCc1ccccc1 [Compound 40]: < 300 nM
O=C(O)Cc1cncc(-c2ccc(-c3nn[nH]n3)cc2CN(Cc2ccccc2)C(=O)C2CC2)c1 [Compound 4]: < 300 nM
CCN(Cc1cc(C(F)(F)F)ccc1-c1cc(CC(=O)O)cnc1OC)C(C)=O [Compound 41]: 300 to 1000 nM

Lab note: each compound below needs its IC50 filled in.
1. CCN(Cc1cc(C(F)(F)F)ccc1-c1cc(CC(=O)O)cnc1OCC(F)(F)F)C(=O)C1CC1 [Compound 39]
2. CC(=O)N(Cc1ccccc1)Cc1cc(C(F)(F)F)ccc1-c1cc(CC(=O)O)cnc1O [Compound 26]
3. CCN(Cc1cc(C(F)(F)F)ccc1-c1cc(CC(=O)O)cnc1OC)C(=O)C1CC1 [Compound 10]

< 300 nM
< 300 nM
< 300 nM

====

Assignment: determine reported pIC50 for the given compounds.
Target: human DP2 receptor (Homo sapiens, UniProt Q9Y5Y4)
Sequence (Q9Y5Y4 1-395): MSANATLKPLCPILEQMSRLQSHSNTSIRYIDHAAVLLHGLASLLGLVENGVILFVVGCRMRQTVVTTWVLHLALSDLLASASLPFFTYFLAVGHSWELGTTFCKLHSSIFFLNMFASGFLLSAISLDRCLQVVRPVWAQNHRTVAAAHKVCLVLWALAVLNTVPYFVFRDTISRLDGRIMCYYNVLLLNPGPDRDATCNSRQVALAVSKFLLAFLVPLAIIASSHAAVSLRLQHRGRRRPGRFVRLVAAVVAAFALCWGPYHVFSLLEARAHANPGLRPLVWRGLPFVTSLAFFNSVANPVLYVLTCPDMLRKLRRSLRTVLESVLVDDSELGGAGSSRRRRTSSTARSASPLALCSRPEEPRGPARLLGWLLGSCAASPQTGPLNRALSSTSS
Assay: DP2/CRTH2 binding assay (radioligand binding with [3H]PGD2)
Conditions: [3H]PGD2 binding, membranes of HEK293 cells expressing recombinant human DP2; read-out: hDP2
pIC50: −log10 of the molar value.

CC(=O)N(Cc1ccccc1)Cc1cc(C(F)(F)F)ccc1-c1cnc(Cl)c(CC(=O)O)c1: > 6.52
N#Cc1ccc(-c2cncc(CC(=O)O)c2)c(CN(Cc2ccccc2)C(=O)C2CC2)c1: > 6.52
CCOCC(=O)N(CC)Cc1cc(C(F)(F)F)ccc1-c1cncc(CC(=O)O)c1: 6.00 to 6.52

Go through the items and report each one's pIC50.
1. CC(=O)N(Cc1ccccc1)Cc1cc(C(F)(F)F)ccc1-c1cc(CC(=O)O)cnc1Cl
2. CCN(Cc1cc(C(F)(F)F)ccc1-c1cc(CC(=O)O)c[n+]([O-])c1)C(=O)OCc1ccccc1
3. CCN(Cc1cc(C(F)(F)F)ccc1-c1cnc(Cl)c(CC(=O)O)c1)C(=O)C1CC1
4. CCN(Cc1cc(S)ccc1-c1cncc(CC(=O)O)c1)C(=O)C1CC1
5. CCN(Cc1cc(C(F)(F)F)ccc1-c1cncc(CC(=O)O)c1)C(=O)C1CC1

> 6.52
> 6.52
6.00 to 6.52
> 6.52
> 6.52
